EXPERIMENTAL TARGET: T1, HLA-A*02:01 (human)
T1 construct: also called peptide-receptive MHC molecules
PROTOCOL SUMMARY: UV-exchange b2m ELISA; exchange-yield grade
OBSERVABLE: peptide exchange yield

Past entries and their recorded results:
TTYEGSITV : > 75%
YMVHIQVTL : > 75%
FLIEELLFA : > 75%

What measured peptide exchange yield goes with YLTDLQVSL ?
> 75%

What measured peptide exchange yield goes with YTFRYPLSL ?
50 to 75%

What measured peptide exchange yield goes with SVTESTHHL ?
50 to 75%

What measured peptide exchange yield goes with MIPTFTALL ?
50 to 75%

What measured peptide exchange yield goes with SLLDLYQL ?
20 to 50%

What measured peptide exchange yield goes with KLFDTQQFL ?
> 75%

What measured peptide exchange yield goes with ALFKAWAL ?
> 75%
